assay: solvent given as SMILES; settings: in CS(C)=O
Readout kind: absorption maximum (nm)
Supply the numeric figure in nm, leaving out any unit text.

Here's what some known entries look like.
Smiles data | absorption maximum, nm
CCN(CC)c1ccc2cc(-c3csc(N)c3C#N)c(=O)oc2c1 | 406
O=C1CCCc2c1[nH]c1cc3c(cc21)OCO3 | 340.34
N#Cc1ccc2c(c1)CCc1nc(-c3ccc([N+](=O)[O-])cc3)c3c(c1-2)CCc1cc(C#N)ccc1-3 | 360
O=c1c2cc(S(=O)(=O)O)ccc2[nH]c2ccc(S(=O)(=O)O)cc12 | 399
CCCN1/C(=C/C=C/C=C/C2=[N+](CCC)c3ccccc3C2(C)C)C(C)(C)c2ccccc21 | 645
c1ccc2nc3c(nc2c1)c1c2n3CCCN2CCCC1 | 441

**Q:** Record request: absorption maximum value, item O=C1CC(=O)Nc2cc(C(=O)O)ccc2N1
**A:** 304

**Q:** Using the record for F[B-]1(F)C2=C(C=c3c4cccc5cccc(c54)n31)c1cccc3ccc[n+]2c13 , report its absorption maximum.
**A:** 622

**Q:** Suppose we examine the molecule CN1/C(=C/C=C(/C=C/c2sc3ccccc3[n+]2C)c2cc(F)cc(F)c2)Sc2ccccc21 ; what absorption maximum value has been reported?
**A:** 651

**Q:** absorption maximum lookup needed for CCOc1cc2c(cc1/C=C/C1=CC(=C(C#N)C#N)CC(C)(C)C1)c1ccccc1n2CC , thanks.
**A:** 491
